Listed below: pIC50 values for each entry.
Target: ErbB2 with Exon 20 YVMA insertion (HER2-YVMA) (Homo sapiens (Human), UniProt P04626, INS775YVMA)
Sequence (P04626 other isoform, or with tags, fused parts or gaps ins YVMA behind 775): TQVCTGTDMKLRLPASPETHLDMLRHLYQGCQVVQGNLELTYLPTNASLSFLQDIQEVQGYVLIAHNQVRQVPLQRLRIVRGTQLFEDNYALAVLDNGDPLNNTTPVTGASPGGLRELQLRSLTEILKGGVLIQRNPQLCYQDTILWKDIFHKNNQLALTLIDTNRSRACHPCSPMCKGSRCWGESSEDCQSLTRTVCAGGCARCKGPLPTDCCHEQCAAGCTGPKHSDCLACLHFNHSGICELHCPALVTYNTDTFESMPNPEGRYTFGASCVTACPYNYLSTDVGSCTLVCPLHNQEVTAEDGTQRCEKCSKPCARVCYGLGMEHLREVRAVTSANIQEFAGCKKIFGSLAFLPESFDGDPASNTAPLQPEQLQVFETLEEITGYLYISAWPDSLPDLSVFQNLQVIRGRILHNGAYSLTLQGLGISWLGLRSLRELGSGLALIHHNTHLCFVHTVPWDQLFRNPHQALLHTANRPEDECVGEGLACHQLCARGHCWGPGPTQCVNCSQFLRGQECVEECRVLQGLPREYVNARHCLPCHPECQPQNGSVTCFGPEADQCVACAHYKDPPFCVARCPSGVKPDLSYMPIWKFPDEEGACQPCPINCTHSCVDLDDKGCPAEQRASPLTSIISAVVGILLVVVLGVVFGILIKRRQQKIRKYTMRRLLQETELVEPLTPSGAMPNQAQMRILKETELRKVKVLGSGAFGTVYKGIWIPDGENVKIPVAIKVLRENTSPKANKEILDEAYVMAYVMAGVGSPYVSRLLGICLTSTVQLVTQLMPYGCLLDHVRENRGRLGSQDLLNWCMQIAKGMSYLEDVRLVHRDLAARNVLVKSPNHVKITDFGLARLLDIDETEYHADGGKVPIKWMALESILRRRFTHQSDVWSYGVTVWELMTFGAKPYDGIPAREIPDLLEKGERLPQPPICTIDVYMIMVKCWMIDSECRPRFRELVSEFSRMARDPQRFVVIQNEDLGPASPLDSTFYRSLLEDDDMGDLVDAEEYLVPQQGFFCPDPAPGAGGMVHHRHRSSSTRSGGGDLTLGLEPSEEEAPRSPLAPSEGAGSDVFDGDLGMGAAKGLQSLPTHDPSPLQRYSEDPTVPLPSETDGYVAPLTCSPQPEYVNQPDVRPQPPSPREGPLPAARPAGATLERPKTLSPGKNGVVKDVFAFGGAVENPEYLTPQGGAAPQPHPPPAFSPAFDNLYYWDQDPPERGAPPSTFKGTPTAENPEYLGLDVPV
Test: Cellular Phosphorylation Assay, Assay 4 (constitutive ErbB2 phosphorylation, NIH 3T3 cells)
Type: cell-based
Conditions: cellular ErbB2 YVMA phosphorylation
Scale: negative log10 of molar concentration, which is what pIC50 denotes.

Request: pIC50 for CCC(=O)N1CC([C@H](C)c2ccc3ncnc(Nc4ccc(Oc5ccn6ncnc6c5)c(C)c4F)c3n2)C1 (racemic) ?
Response: 7.29

Request: Next record, please: `C=CC(=O)N1CCN(c2ccc3ncnc(Nc4ccc(Oc5ccc6scnc6c5)c(C)c4)c3n2)CC1(C)C`
Response: 7.82

Request: Next record, please: `C=CC(=O)N1CCN(c2ccc3ncnc(Nc4cc(C)c(Oc5ccn6ncnc6c5)cc4F)c3n2)C[C@H]1C(C)(C)C`
Response: 7.48

Request: Next record, please: C=CC(=O)N1CCN(c2ccc3ncnc(Nc4cc(C)c(Oc5ccn6ncnc6c5)cc4F)c3n2)C[C@@H]1C(F)F (racemic)
Response: 7.87

Request: Next record, please: `C=CC(=O)N1C[C@@H]2C[C@H]1CC[C@@H]2c1ccc2ncnc(Nc3cc(C)c(Oc4ccc5c(c4)ncn5C)cc3F)c2n1`
Response: 7.18

Request: Next record, please: `C=CC(=O)N1CCN(c2ccc3ncnc(Nc4cc(C)c(Oc5ccn6ncnc6c5)cc4F)c3n2)C[C@H]1COC`
Response: 8.09

Entry source: patent US12447153B2
